System: HeLa Kyoto;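 note: synchronized HeLa Kyoto cells, proteins quantified by TMT10plex mass spectrometry, three biological replicates, mitosis taken 0.5 h after nocodazole release, G1/S directly after double thymidine block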
Test: thermal stability score vs G1/S (z-score of summed log2 fold changes over temperatures); higher = more thermally stable than in G1/S
Details: cell cycle stage: mitosis
The label depends only on thermal stability score: yes (1) if it is at least 2, no (0) if it is smaller.

Example entries and their recorded answers appear below.
MAVVPLLLLGGLWSAVGASSLGVVTCGSVVKLLNTRHNVRLHSHDVRYGSGSGQQSVTGVTSVDDSNSYWRIRGKSATVCERGTPIKCGQPIRLTHVNTGRNLHSHHFTSPLSGNQEVSAFGEEGEGDYLDDWTVLCNGPYWVRDGEVRFKHSSTEVLLSVTGEQYGRPISGQKEVHGMAQPSQNNYWKAMEGIFMKPSELLKAEAHHAEL [SDF2]    yes (1)
MSFRKVNIIILVLAVALFLLVLHHNFLSLSSLLRNEVTDSGIVGPQPIDFVPNALRHAVDGRQEEIPVVIAASEDRLGGAIAAINSIQHNTRSNVIFYIVTLNNTADHLRSWLNSDSLKSIRYKIVNFDPKLLEGKVKEDPDQGESMKPLTFARFYLPILVPSAKKAIYMDDDVIVQGDILALYNTALKPGHAAAFSEDCDSASTKVVIRGAGNQYNYIGYLDYKKERIRKLSMKASTCSFNPGVFVANLTEWKRQNITNQLEKWMKLNVEEGLYSRTLAGSITTPPLLIVFYQQHSTIDPMWNVRHLGSSAGKRYSPQFVKAAKLLHWNGHLKPWGRTASYTDVWEKWYIPDPTGKFNLIRRYTEISNIK [GLT8D1]    yes (1)
MDGGDDGNLIIKKRFVSEAELDERRKRRQEEWEKVRKPEDPEECPEEVYDPRSLYERLQEQKDRKQQEYEEQFKFKNMVRGLDEDETNFLDEVSRQQELIEKQRREEELKELKEYRNNLKKVGISQENKKEVEKKLTVKPIETKNKFSQAKLLAGAVKHKSSESGNSVKRLKPDPEPDDKNQEPSSCKSLGNTSLSGPSIHCPSAAVCIGILPGLGAYSGSSDSESSSDSEGTINATGKIVSSIFRTNTFLEAP [FAM192A]    no (0)
MVDLTQVMDDEVFMAFASYATIILSKMMLMSTATAFYRLTRKVFANPEDCVAFGKGENAKKYLRTDDRVERVRRAHLNDLENIIPFLGIGLLYSLSGPDPSTAILHFRLFVGARIYHTIAYLTPLPQPNRALSFFVGYGVTLSMAYRLLKSKLYL [MGST1]    no (0)
MEPGPDGPAASGPAAIREGWFRETCSLWPGQALSLQVEQLLHHRRSRYQDILVFRSKTYGNVLVLDGVIQCTERDEFSYQEMIANLPLCSHPNPRKVLIIGGGDGGVLREVVKHPSVESVVQCEIDEDVIQVSKKFLPGMAIGYSSSKLTLHVGDGFEFMKQNQDAFDVIITDSSDPMGPAESLFKESYYQLMKTALKEDGVLCCQGECQWLHLDLIKEMRQFCQSLFPVVAYAYCTIPTYPSGQIGFMLCSKNPSTNFQEPVQPLTQQQVAQMQLKYYNSDVHRAAFVLPEFARKALNDVS [SRM]    no (0)
MVLLTMIARVADGLPLAASMQEDEQSGRDLQQYQSQAKQLFRKLNEQSPTRCTLEAGAMTFHYIIEQGVCYLVLCEAAFPKKLAFAYLEDLHSEFDEQHGKKVPTVSRPYSFIEFDTFIQKTKKLYIDSRARRNLGSINTELQDVQRIMVANIEEVLQRGEALSALDSKANNLSSLSKKYRQDAKYLNMRSTYAKLAAVAVFFIMLIVYVRFWWL [SEC22B]    yes (1)
MAATLLAARGAGPAPAWGPEAFTPDWESREVSTGTTIMAVQFDGGVVLGADSRTTTGSYIANRVTDKLTPIHDRIFCCRSGSAADTQAVADAVTYQLGFHSIELNEPPLVHTAASLFKEMCYRYREDLMAGIIIAGWDPQEGGQVYSVPMGGMMVRQSFAIGGSGSSYIYGYVDATYREGMTKEECLQFTANALALAMERDGSSGGVIRLAAIAESGVERQVLLGDQIPKFAVATLPPA [PSMB6]    no (0)
MALDVKSRAKRYEKLDFLGEGQFATVYKARDKNTNQIVAIKKIKLGHRSEAKDGINRTALREIKLLQELSHPNIIGLLDAFGHKSNISLVFDFMETDLEVIIKDNSLVLTPSHIKAYMLMTLQGLEYLHQHWILHRDLKPNNLLLDENGVLKLADFGLAKSFGSPNRAYTHQVVTRWYRAPELLFGARMYGVGVDMWAVGCILAELLLRVPFLPGDSDLDQLTRIFETLGTPTEEQWPDMCSLPDYVTFKSFPGIPLHHIFSAAGDDLLDLIQGLFLFNPCARITATQALKMKYFSNRPGPTPGCQLPRPNCPVETLKEQSNPALAIKRKRTEALEQGGLPKKLIF [CDK7]    no (0)

Next:
Q. Has MALVHKLLRGTYFLRKFSKPTSALYPFLGIRFAEYSSSLQKPVASPGKASSQRKTEGDLQGDHQKEVALDITSSEEKPDVSFDKAIRDEAIYHFRLLKDEIVDHWRGPEGHPLHEVLLEQAKVVWQFRGKEDLDKWTVTSDKTIGGRSEVFLKMGKNNQSALLYGTLSSEAPQDGESTRSGYCAMISRIPRGAFERKMSYDWSQFNTLYLRVRGDGRPWMVNIKEDTDFFQRTNQMYSYFMFTRGGPYWQEVKIPFSKFFFSNRGRIRDVQHELPLDKISSIGFTLADKVDGPFFLEIDFIGVFTDPAHTEEFAYENSPELNPRLFK [NDUFAF1] a recorded thermal stability score greater than or equal to 2?
A. yes (1)
